- measurement-target: human Npt2a (Homo sapiens, UniProt Q06495)
- assay-comment: Npt2a activity cell based assay, membrane potential dye, CHO T-REx hNpt2a cells
- measurement-conditions: doxycycline-induced, depolarization by sodium phosphate influx, average or median values if tested more than once
Consider the following compounds and their measured IC50 readings.
Reply with just the number (in nM).

# compound, observation-type, recorded-result
measured = [
    ("Cc1cc(C)n(-c2cc(Nc3c(Cl)c(-c4ccccc4)nn3C)ncn2)n1", "IC50", 130),
]

query: I am curious: what IC50 value has been reported for Cc1nn(-c2cc(Nc3c(Cl)c(-c4ccc(F)cc4)nn3C)ncn2)c(C(C)(C)O)c1Cl ?
result: 86

query: Fill in: IC50 of CCc1c(Nc2cc(-n3nc(C)c(C(=O)N4CC(F)C4)c3C)ncn2)nn(C)c1-c1ccc(F)cc1 is ___
result: 975

----------
- measurement-target: human Npt2a (Homo sapiens, UniProt Q06495)
- assay-comment: Npt2a activity cell based assay, membrane potential dye, CHO T-REx hNpt2a cells
- measurement-conditions: doxycycline-induced, depolarization by sodium phosphate influx, average or median values if tested more than once
pIC50: −log10 of the molar value.
// class assignment uses pIC50 with these ranges: low group = under 7, middle group = from 7 up to 8, high group = 8 and over

# compound, class-label
rows = [
    ("COCCn1nc(-c2ccc(C#N)cc2)c(C)c1Nc1cc(-n2nc(C)cc2C)ncn1", "high group"),
    ("Cc1nn(-c2cc(Nc3c(C)c(-c4ccc(C(F)(F)F)cc4)nn3CC3CC3)ncn2)c(C)c1Cl", "low group"),
    ("Cc1c(-c2ccc(F)cc2)nn(CC2CC2)c1Nc1cc(-n2nc(C)c3ccncc32)ncn1", "high group"),
    ("COc1ccc(-c2nn(CC3CC3)c(Nc3cc(-n4nc(C)cc4C(F)F)ncn3)c2C)cc1", "low group"),
    ("COC(C)c1c(C)nn(-c2cc(Nc3nn(C)c(-c4ccc(F)cc4)c3C)ncn2)c1C (single isomer, unassigned) [Example 344]", "high group"),
]

query: # bin label for Cc1cc(C)n(-c2cc(Nc3c(C)c(-c4ccc(C(F)(F)F)cc4)nn3CC3CC3)ncn2)n1
result: middle group

query: Could you place Cc1nn(-c2cc(Nc3c(C)c(-c4ccc(OC(F)(F)F)cc4)nn3CC3CC3)ncn2)c(C)c1C(C)(C)O in its proper category? Many thanks.
result: middle group

query: Consider COc1c(-c2ccc(C#N)cc2)nn(C)c1Nc1cc(-n2nc(C)c(CC(C)(C)O)c2C)ncn1 . To which pIC50 class does it belong?
result: low group

query: Form: Item = CCOc1ccc(-c2n[nH]c(Nc3cc(-n4nc(C)cc4C)ncn3)c2Cl)cc1 ; Class = ?
result: high group

query: Just checking, what class would you give COc1ccc(-c2nn(C)c(Nc3cc(-n4nc(C)cc4C(F)F)ncn3)c2C)cn1 here?
result: low group

----------
Recorded pIC50 for the following compounds
- measurement-target: human Npt2a (Homo sapiens, UniProt Q06495)
- Construct: expressed in transfected cells
- assay-comment: Npt2a activity cell based assay, membrane potential dye, CHO T-REx hNpt2a cells
- measurement-conditions: doxycycline-induced, depolarization by sodium phosphate influx, average or median values if tested more than once
Scale note: pIC50 = -log10(concentration in M).

Some compounds with known pIC50 results, for comparison:
# mol-smiles, pIC50
records = [
    ("CCc1c(Nc2cc(-n3nc(C)c(Cl)c3C)ncn2)nn(CC(F)F)c1-c1ccc(F)cc1", 7.48),
    ("COc1c(Nc2cc(-n3nc(C)cc3C(F)F)ncn2)nn(C)c1-c1ccc(C#N)cc1", 8.70),
    ("Cc1nn(-c2cc(Nc3nn(C)c(-c4ccc(F)cc4)c3C3CC3)ncn2)c(C)c1Cl", 8.12),
]

Please examine the following record next.
query: Data request, read-out pIC50, for Cc1nn(-c2cc(Nc3c(Cl)c(-c4ccc(F)cc4)nn3CC3CC3)ncn2)c(C(F)F)c1Cl
result: 7.22

----------
List of log10 of IC50 values.
- measurement-target: human Npt2a (Homo sapiens)
- Sequence (Q06495 1-639): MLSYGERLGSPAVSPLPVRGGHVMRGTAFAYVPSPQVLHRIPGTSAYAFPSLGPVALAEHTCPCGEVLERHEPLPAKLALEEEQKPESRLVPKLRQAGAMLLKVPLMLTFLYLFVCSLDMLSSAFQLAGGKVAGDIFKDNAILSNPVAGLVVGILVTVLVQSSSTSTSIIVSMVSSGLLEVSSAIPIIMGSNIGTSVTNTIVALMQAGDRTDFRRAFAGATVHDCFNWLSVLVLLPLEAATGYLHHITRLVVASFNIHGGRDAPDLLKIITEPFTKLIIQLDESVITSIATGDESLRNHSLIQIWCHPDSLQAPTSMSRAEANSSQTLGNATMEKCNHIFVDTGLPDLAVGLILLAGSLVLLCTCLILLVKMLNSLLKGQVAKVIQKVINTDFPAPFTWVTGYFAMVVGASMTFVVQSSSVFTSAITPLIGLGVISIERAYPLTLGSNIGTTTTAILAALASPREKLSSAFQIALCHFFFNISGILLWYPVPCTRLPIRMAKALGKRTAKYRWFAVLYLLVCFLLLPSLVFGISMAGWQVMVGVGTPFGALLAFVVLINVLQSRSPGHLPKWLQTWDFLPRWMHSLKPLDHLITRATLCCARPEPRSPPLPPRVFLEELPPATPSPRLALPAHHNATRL
- assay-comment: Npt2a activity cell based assay, membrane potential dye, CHO T-REx hNpt2a cells
- measurement-conditions: doxycycline-induced, depolarization by sodium phosphate influx, average or median values if tested more than once
On a log10 scale: recorded IC50, unit nM.

See these solved cases before continuing.
# compound, recorded-result
records = [
    ("Cc1nn(-c2cc(Nc3c(C)c(-c4ccc(F)cc4)nn3CC3CC3)ncn2)c(C)c1C(O)C(F)(F)F (single isomer, unassigned) [Example 375]", 1.60),
    ("COc1c(C)nn(-c2cc(Nc3c(C)c(-c4ccc(C(F)(F)F)nc4)nn3CC3CC3)ncn2)c1C", 1.41),
    ("Cc1cc(C)n(-c2cc(Nc3c(C)c(-c4ccc(C#N)cc4)nn3CC3CC3)ncn2)n1", 0.48),
    ("Cc1cc(C)n(-c2cc(Nc3nn(C)c(-c4ccc(F)cc4)c3C)ncn2)n1", 1.20),
]

query: Bench note: what log10 of IC50 did Cc1cc(C)n(-c2cc(Nc3nn(C)c(-c4ccccc4)c3Cl)ncn2)n1 show?
result: 1.92

query: Recorded log10 of IC50 of Cc1nn(-c2cc(Nc3c(C)c(-c4ccc(C#N)cc4)nn3CC3CC3)ncn2)c(C)c1C(O)C(F)(F)F (racemic) [Example 358] , please.
result: 1.00

query: Which log10 of IC50 reading was recorded for the compound CCc1c(Nc2cc(-n3nc(C)cc3CO)ncn2)nn(C)c1-c1ccc(F)cc1 ?
result: 2.18

----------
- measurement-target: human Npt2a (Homo sapiens, UniProt Q06495)
- assay-comment: Npt2a activity cell based assay, membrane potential dye, CHO T-REx hNpt2a cells
- measurement-conditions: doxycycline-induced, depolarization by sodium phosphate influx, average or median values if tested more than once
observation-type: pIC50
Hey, just a heads up that pIC50 is the negative log base 10 of the concentration in molar.

Solved entries (count: 6):
# compound, pIC50
records = [
    ("CCOC(=O)c1c(C)nn(-c2cc(Nc3c(C)c(-c4ccc(F)cn4)nn3CCOC)ncn2)c1C", 7.85),
    ("CCc1c(Nc2cc(-n3nc(C)c(CN4CCN(C)CC4)c3C)ncn2)nn(C)c1-c1ccc(F)cc1", 5.84),
    ("Cc1nn(-c2cc(Nc3c(C)c(-c4ccc(F)cc4)nn3CC3CC3)ncn2)c(C)c1C(O)(C(F)(F)F)C(F)(F)F", 7.89),
    ("CCc1c(-c2ccc(F)cc2)nn(CCOCc2ccccc2)c1Nc1cc(-n2nc(C)cc2C)ncn1", 6.16),
    ("CCc1c(-c2ccc(F)cc2)nn(CC2CC2)c1Nc1cc(-n2nc(C)c(-c3nnc(C)o3)c2C)ncn1", 8.10),
    ("CCc1c(-c2ccc(F)cc2)nn(C)c1Nc1cc(-n2nc(C)c3ccncc32)ncn1", 8.05),
]

Pending compound:
query: Any idea what its pIC50 is? The compound is Cc1nn(-c2cc(Nc3c(C)c(-c4ccc(C#N)cc4)nn3CC3CC3)ncn2)c(C)c1C(C)(O)C(F)(F)F (racemic)
result: 8.40

----------
- measurement-target: human Npt2a (Homo sapiens, UniProt Q06495)
- assay-comment: Npt2a activity cell based assay, membrane potential dye, CHO T-REx hNpt2a cells
- measurement-conditions: doxycycline-induced, depolarization by sodium phosphate influx, average or median values if tested more than once
pIC50: −log10 of the molar value.
I would appreciate it if you labelled entries criterion met when pIC50 is 7 or higher, otherwise criterion not met.

Here are 3 compounds together with their reported answers.
# compound, class-label
measured = [
    ("Cc1nn(-c2cc(Nc3c(C)c(-c4ccc(C(F)(F)F)nc4)nn3C)ncn2)c(C)c1Cl", "criterion not met"),
    ("COc1c(C)nn(-c2cc(Nc3c(C)c(C45C6C7C4C4C5C6C74C#N)nn3CC3CC3)ncn2)c1C (stereo not shown)", "criterion met"),
    ("Cc1nn(-c2cc(Nc3nn(CC4CC4)c(-c4ccc(F)cc4)c3Cl)ncn2)c2cnccc12", "criterion met"),
]

query: Item Cc1nn(-c2cc(Nc3c(C)c(-c4ccc(C#N)cc4)nn3C)ncn2)c2c1C(=O)CC2 with pIC50 of 7 or above?
result: criterion not met

query: API: above_or_equal(metric=pIC50, cutoff=7) for item Cc1nn(-c2cc(Nc3nn(C)c(-c4ccc(C#N)cc4)c3C)ncn2)c(C)c1Cl
result: criterion met

query: Dear colleague, could you confirm whether CNc1ccc(-c2nn(CC3CC3)c(Nc3cc(-n4nc(C)c(Cl)c4C)ncn3)c2C)cc1 has pIC50 at or above 7?
result: criterion met

query: pIC50 >= 7 for CCc1c(Nc2cc(-n3nc4c(c3O)CCCC4)ncn2)nn(C)c1-c1ccc(F)cc1 ?
result: criterion not met

query: Is pIC50 for Cc1nn(-c2cc(Nc3c(C)c(-c4ccncc4)nn3CC3CC3)ncn2)c(C)c1C(F)(F)F at or above 7?
result: criterion met

query: Record CCc1c(Nc2cc(-n3nc(C)c(C(C)(C)O)c3C)ncn2)nn(CC2CC2)c1-c1ccc(F)cc1 ; criterion: pIC50 no lower than 7. Met?
result: criterion not met

query: I'd appreciate it if you could say whether CNC(=O)Oc1c(C)nn(-c2cc(Nc3c(C)c(-c4ccc(F)cc4)nn3CC3CC3)ncn2)c1C has pIC50 at least equal to 7.
result: criterion not met

query: Form field: pIC50 at least 7? Entry: Cc1cc(C)n(-c2cc(Nc3c(C)c(-c4ccccc4)nn3C)ncn2)n1
result: criterion met

query: Test whether the compound COc1c(-c2ccc(C#N)cc2)nn(CC2CC2)c1Nc1cc(-n2nc(C)c(C(C)OC)c2C)ncn1 (single isomer, unassigned) [Example 334] records pIC50 of 7 or higher.
result: criterion met

query: Could you verify whether the entry Cc1cc(C)n(-c2cc(Nc3c(C)c(-c4ccc(C(F)(F)F)nc4)nn3CC3CC3)ncn2)n1 shows pIC50 of no less than 7?
result: criterion not met

query: Quick check: does CCOC(=O)c1c(Cl)c(C)nn1-c1cc(Nc2c(Cl)c(-c3ccc(F)cc3)nn2C)ncn1 have pIC50 greater than or equal to 7?
result: criterion not met

query: // inclusive: pIC50 at least 7? input: CCc1c(-c2ccc(F)cc2)nn(CC2CC2)c1Nc1cc(-n2nc(C)c(Cl)c2C)ncn1
result: criterion met

query: State whether the measured pIC50 reaches 7, counting equality as reaching it, for CCOC(=O)c1c(C)nn(-c2cc(Nc3n[nH]c(-c4ccc(F)cc4)c3C)ncn2)c1C
result: criterion met
